Data provenance: patent US20220033501A1

Target: T1, murine TIM-3 protein with hFc tag (mTIM-3-hFc protein) (mouse; human, UniProt Q8VIM0 29-191)
T1 construct: Made in HEK293 cells; also called mouse TIM-3 extracellular domain protein; not shown: human IgG Fc fragment (hFc) of the pCpC vector
T1 chain: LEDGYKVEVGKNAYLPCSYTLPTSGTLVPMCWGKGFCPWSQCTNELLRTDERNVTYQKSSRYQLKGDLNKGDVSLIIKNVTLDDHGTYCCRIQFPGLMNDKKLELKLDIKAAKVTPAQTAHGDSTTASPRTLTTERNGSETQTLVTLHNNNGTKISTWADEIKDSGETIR
Test: ELISA, coated mTIM-3-hFc; antibody 0.6667 nM
# maps each entry to its OD450
The answer should be written as a number, with no unit following it.

Query: Give a short answer stating reported OD450 for 18D2H2 (TIM-3 antibody purified from hybridoma, chimeric antibody of Example 2) (antibody, V domains shown, From hybridoma of Harbour H2L2 transgenic mice: human variable regions, rat constant regions) VH: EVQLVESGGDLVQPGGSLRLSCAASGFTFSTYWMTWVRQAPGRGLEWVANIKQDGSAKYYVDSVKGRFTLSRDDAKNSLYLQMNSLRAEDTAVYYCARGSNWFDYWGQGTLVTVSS VL: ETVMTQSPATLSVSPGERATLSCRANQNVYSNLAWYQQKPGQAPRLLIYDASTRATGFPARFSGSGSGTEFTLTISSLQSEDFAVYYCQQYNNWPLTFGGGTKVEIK .
Reply: 0.66

Query: Give a short answer stating reported OD450 for 34B6D8 (TIM-3 antibody purified from hybridoma, chimeric antibody of Example 2) (antibody, V domains shown, From hybridoma of Harbour H2L2 transgenic mice: human variable regions, rat constant regions) VH: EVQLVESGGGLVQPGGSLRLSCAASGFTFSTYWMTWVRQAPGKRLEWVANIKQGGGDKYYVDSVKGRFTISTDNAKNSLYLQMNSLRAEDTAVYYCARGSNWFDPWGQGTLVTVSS VL: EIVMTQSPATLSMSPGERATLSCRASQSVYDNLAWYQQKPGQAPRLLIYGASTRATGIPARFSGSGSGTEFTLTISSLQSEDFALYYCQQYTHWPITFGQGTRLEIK .
Reply: 0.65
